Where do the numbers come from? From PubChem BioAssay AID2060616.

Tested on: 377384-186-R-J1-PDC complex spheroid viability
Assay procedure: Anticancer human tumor 377384-186-R-J1-PDC patient-derived pancreatic carcinoma cell line growth inhibition [CLK]
Applied conditions: second compound 1 µM; first compound 10 µM; stronger effect = lower value
Description: A high-throughput screen of multi-cell type tumor spheroids was designed to identify active combinations of […] and targeted small molecules. Complex spheroids include a stromal component modeled by human endothelial cells (HUVEC) and fibroblasts modeled by human mesenchymal stem cells (MSCs). […] Compounds. […] If the clinical Cmax for an agent had not been determined, the highest concentration tested was 10 microM. […]
Heads up, the class ranges for viability, T/C are group A (below 1%), group B (1% to below 2%), group C (2% or more)

For orientation, consider the following solved cases.
| Molecule | Class assignment |
| --- | --- |
| Nc1ccn(C2OC(CO)C(O)C2(F)F)c(=O)n1 (centres undefined) + CN1CCN(c2cc(C(=O)Nc3cc4cc(-c5cnn(C)c5)ccc4cn3)ccn2)CC1 | group B |
| CC(=O)O[C@H]1C(=O)[C@@]2(C)[C@H]([C@H](OC(=O)c3ccccc3)[C@]3(O)C[C@H](OC(=O)[C@H](O)[C@@H](NC(=O)c4ccccc4)c4ccccc4)C(C)=C1C3(C)C)[C@]1(OC(C)=O)CO[C@@H]1C[C@@H]2O + CN1CCN(c2cc(C(=O)Nc3cc4cc(-c5cnn(C)c5)ccc4cn3)ccn2)CC1 | group B |
| O=C(c1cc(Cc2n[nH]c(=O)c3ccccc23)ccc1F)N1CCN(C(=O)C2CC2)CC1 + CNC(=O)c1ccc(Nc2nc(OC3CCCC3)c3c(-c4ccc5nc(C)oc5c4)c[nH]c3n2)c(OC)c1 | group C |
| C#Cc1c(F)ccc2cc(O)cc(-c3ncc4c(N5CC6CCC(C5)N6)nc(OCC56CCCN5CC(F)C6)nc4c3F)c12 (centres undefined) + CNC(=O)c1ccc(Nc2nc(OC3CCCC3)c3c(-c4ccc5nc(C)oc5c4)c[nH]c3n2)c(OC)c1 | group B |
| CC(CO)NC(=O)c1cc(-c2ccc(Cl)cc2)nn(-c2cnn(C)c2)c1=O (centres undefined) + CN1CCN(c2cc(C(=O)Nc3cc4cc(-c5cnn(C)c5)ccc4cn3)ccn2)CC1 | group C |

Q. Looking at CCCS(=O)(=O)Nc1ccc(F)c(C(=O)c2c[nH]c3ncc(-c4ccc(Cl)cc4)cc23)c1F + CN1CCN(c2cc(C(=O)Nc3cc4cc(-c5cnn(C)c5)ccc4cn3)ccn2)CC1 , which class would you pick?
A. group B

Q. And Nc1ccccc1NC(=O)c1ccc(CNC(=O)OCc2cccnc2)cc1 + CNC(=O)c1ccc(Nc2nc(OC3CCCC3)c3c(-c4ccc5nc(C)oc5c4)c[nH]c3n2)c(OC)c1 ?
A. group B

Q. And O=C(c1cc(Cc2n[nH]c(=O)c3ccccc23)ccc1F)N1CCN(C(=O)C2CC2)CC1 + CN1CCN(c2cc(C(=O)Nc3cc4cc(-c5cnn(C)c5)ccc4cn3)ccn2)CC1 ?
A. group A

Q. And CC(=O)O[C@H]1C(=O)[C@@]2(C)[C@H]([C@H](OC(=O)c3ccccc3)[C@]3(O)C[C@H](OC(=O)[C@H](O)[C@@H](NC(=O)c4ccccc4)c4ccccc4)C(C)=C1C3(C)C)[C@]1(OC(C)=O)CO[C@@H]1C[C@@H]2O + CNC(=O)c1ccc(Nc2nc(OC3CCCC3)c3c(-c4ccc5nc(C)oc5c4)c[nH]c3n2)c(OC)c1 ?
A. group C

Q. And Nc1ccccc1NC(=O)c1ccc(CNC(=O)OCc2cccnc2)cc1 + CN1CCN(c2cc(C(=O)Nc3cc4cc(-c5cnn(C)c5)ccc4cn3)ccn2)CC1 ?
A. group A

Q. And C=CC(=O)N1CCN(c2nc(=O)n(-c3c(C)ccnc3C(C)C)c3nc(-c4c(O)cccc4F)c(F)cc23)C(C)C1 (centres undefined) + CN1CCN(c2cc(C(=O)Nc3cc4cc(-c5cnn(C)c5)ccc4cn3)ccn2)CC1 ?
A. group C

Q. And COC1C=CCC(C)C(C)S(=O)(=O)NC(=O)c2ccc3c(c2)N(CC2CCC21)CC1(CCCc2cc(Cl)ccc21)CO3 (centres undefined) + CN1CCN(c2cc(C(=O)Nc3cc4cc(-c5cnn(C)c5)ccc4cn3)ccn2)CC1 ?
A. group A

Q. And CC1(C)CCC(CN2CCN(c3ccc(C(=O)NS(=O)(=O)c4ccc(NCC5CCOCC5)c([N+](=O)[O-])c4)c(Oc4cnc5[nH]ccc5c4)c3)CC2)=C(c2ccc(Cl)cc2)C1 + CN1CCN(c2cc(C(=O)Nc3cc4cc(-c5cnn(C)c5)ccc4cn3)ccn2)CC1 ?
A. group B

Q. And COc1cccc2c1C(=O)c1c(O)c3c(c(O)c1C2=O)CC(O)(C(=O)CO)CC3OC1CC(N)C(O)C(C)O1 (centres undefined) + CNC(=O)c1ccc(Nc2nc(OC3CCCC3)c3c(-c4ccc5nc(C)oc5c4)c[nH]c3n2)c(OC)c1 ?
A. group C

Q. And CC1(C)CCC(CN2CCN(c3ccc(C(=O)NS(=O)(=O)c4ccc(NCC5CCOCC5)c([N+](=O)[O-])c4)c(Oc4cnc5[nH]ccc5c4)c3)CC2)=C(c2ccc(Cl)cc2)C1 + CNC(=O)c1ccc(Nc2nc(OC3CCCC3)c3c(-c4ccc5nc(C)oc5c4)c[nH]c3n2)c(OC)c1 ?
A. group C

Q. And C=C(F)C(=O)N1CCN(c2nc(OCC3CCCN3C)nc3c2CCN(c2cccc4cccc(Cl)c24)C3)CC1CC#N (centres undefined) + CNC(=O)c1ccc(Nc2nc(OC3CCCC3)c3c(-c4ccc5nc(C)oc5c4)c[nH]c3n2)c(OC)c1 ?
A. group A

Q. And CC1COCCN1c1cc(C2(S(C)(=N)=O)CC2)nc(-c2ccnc3[nH]ccc23)n1 (centres undefined) + CN1CCN(c2cc(C(=O)Nc3cc4cc(-c5cnn(C)c5)ccc4cn3)ccn2)CC1 ?
A. group A

Q. And CCCS(=O)(=O)Nc1ccc(F)c(C(=O)c2c[nH]c3ncc(-c4ccc(Cl)cc4)cc23)c1F + CNC(=O)c1ccc(Nc2nc(OC3CCCC3)c3c(-c4ccc5nc(C)oc5c4)c[nH]c3n2)c(OC)c1 ?
A. group C

====

Test system: 377384-186-R-J1-PDC complex spheroid viability
Assay procedure: Anticancer human tumor 377384-186-R-J1-PDC cell line growth inhibition [CLK];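 also: luminescence signal used as a stand-in for viable cells; spheroids exposed to agents for 7 days before reading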
Applied conditions: second compound 1 µM; first compound 1 µM; stronger effect = lower value
Label criterion met when viability, T/C is strictly below 4%; at or above that, label criterion not met.

For orientation, consider the following solved cases.
| Compound | Class assignment |
| --- | --- |
| Nc1ccn(C2OC(CO)C(O)C2(F)F)c(=O)n1 (stereo unspecified) + CNC(=O)c1ccc(Nc2nc(OC3CCCC3)c3c(-c4ccc5nc(C)oc5c4)c[nH]c3n2)c(OC)c1 | criterion met |
| CC(CO)NC(=O)c1cc(-c2ccc(Cl)cc2)nn(-c2cnn(C)c2)c1=O (stereo unspecified) + CNC(=O)c1ccc(Nc2nc(OC3CCCC3)c3c(-c4ccc5nc(C)oc5c4)c[nH]c3n2)c(OC)c1 | criterion not met |
| COc1c(OCCCN2CCOCC2)ccc2c3n(c(=NC(=O)c4cnc(N)nc4)nc12)CCN3 + CN1CCN(c2cc(C(=O)Nc3cc4cc(-c5cnn(C)c5)ccc4cn3)ccn2)CC1 | criterion met |
| CCCS(=O)(=O)Nc1ccc(F)c(C(=O)c2c[nH]c3ncc(-c4ccc(Cl)cc4)cc23)c1F + CN1CCN(c2cc(C(=O)Nc3cc4cc(-c5cnn(C)c5)ccc4cn3)ccn2)CC1 | criterion met |

Q. viability, T/C strictly < 4% for this compound? CCN1CCN(Cc2ccc(Nc3ncc(F)c(-c4cc(F)c5nc(C)n(C(C)C)c5c4)n3)nc2)CC1 + CNC(=O)c1ccc(Nc2nc(OC3CCCC3)c3c(-c4ccc5nc(C)oc5c4)c[nH]c3n2)c(OC)c1
A. criterion not met

Q. And CC(CO)NC(=O)c1cc(-c2ccc(Cl)cc2)nn(-c2cnn(C)c2)c1=O (stereo unspecified) + CN1CCN(c2cc(C(=O)Nc3cc4cc(-c5cnn(C)c5)ccc4cn3)ccn2)CC1 ?
A. criterion met

====

This listing pairs compounds with measured viability, T/C.
System: 377384-186-R-J1-PDC complex spheroid viability
Assay procedure: Anticancer human tumor 377384-186-R-J1-PDC cell line growth inhibition [CLK];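 also: luminescence signal used as a stand-in for viable cells; spheroids exposed to agents for 7 days before reading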
Applied conditions: second compound 0.316 µM; first compound 1 µM; stronger effect = lower value

// worked examples, viability, T/C included
| Compound | viability, T/C |
| --- | --- |
| CC(Nc1ccc2c(c1)OCCn1cc(N3C(=O)OCC3C(F)F)nc1-2)C(N)=O (stereo unspecified) + CN1CCN(c2cc(C(=O)Nc3cc4cc(-c5cnn(C)c5)ccc4cn3)ccn2)CC1 | 19.8% |
| CCN1CCN(Cc2ccc(Nc3ncc(F)c(-c4cc(F)c5nc(C)n(C(C)C)c5c4)n3)nc2)CC1 + CN1CCN(c2cc(C(=O)Nc3cc4cc(-c5cnn(C)c5)ccc4cn3)ccn2)CC1 | 24.4% |
| CC1COCCN1c1cc(C2(S(C)(=N)=O)CC2)nc(-c2ccnc3[nH]ccc23)n1 (stereo unspecified) + CN1CCN(c2cc(C(=O)Nc3cc4cc(-c5cnn(C)c5)ccc4cn3)ccn2)CC1 | 24.8% |
| O=c1[nH]cc(F)c(=O)[nH]1 + CN1CCN(c2cc(C(=O)Nc3cc4cc(-c5cnn(C)c5)ccc4cn3)ccn2)CC1 | 29.3% |
| CC(CO)NC(=O)c1cc(-c2ccc(Cl)cc2)nn(-c2cnn(C)c2)c1=O (stereo unspecified) + CNC(=O)c1ccc(Nc2nc(OC3CCCC3)c3c(-c4ccc5nc(C)oc5c4)c[nH]c3n2)c(OC)c1 | 22.7% |
| COc1ccc([C@@H](O)c2cc(-c3ncnc4cc(N5CCOCC5)ccc34)c(F)cc2Cl)nn1 + CN1CCN(c2cc(C(=O)Nc3cc4cc(-c5cnn(C)c5)ccc4cn3)ccn2)CC1 | 18.1% |

Q. # lookup: viability, T/C of COC1C=CCC(C)C(C)S(=O)(=O)NC(=O)c2ccc3c(c2)N(CC2CCC21)CC1(CCCc2cc(Cl)ccc21)CO3 (stereo unspecified) + CNC(=O)c1ccc(Nc2nc(OC3CCCC3)c3c(-c4ccc5nc(C)oc5c4)c[nH]c3n2)c(OC)c1
A. 16.8%

Q. And CCCS(=O)(=O)Nc1ccc(F)c(C(=O)c2c[nH]c3ncc(-c4ccc(Cl)cc4)cc23)c1F + CN1CCN(c2cc(C(=O)Nc3cc4cc(-c5cnn(C)c5)ccc4cn3)ccn2)CC1 ?
A. 33.4%

Q. And CCCS(=O)(=O)Nc1ccc(F)c(C(=O)c2c[nH]c3ncc(-c4ccc(Cl)cc4)cc23)c1F + CNC(=O)c1ccc(Nc2nc(OC3CCCC3)c3c(-c4ccc5nc(C)oc5c4)c[nH]c3n2)c(OC)c1 ?
A. 22.6%

Q. And CC1COCCN1c1cc(C2(S(C)(=N)=O)CC2)nc(-c2ccnc3[nH]ccc23)n1 (stereo unspecified) + CNC(=O)c1ccc(Nc2nc(OC3CCCC3)c3c(-c4ccc5nc(C)oc5c4)c[nH]c3n2)c(OC)c1 ?
A. 16.9%

Q. And Nc1ccccc1NC(=O)c1ccc(CNC(=O)OCc2cccnc2)cc1 + CNC(=O)c1ccc(Nc2nc(OC3CCCC3)c3c(-c4ccc5nc(C)oc5c4)c[nH]c3n2)c(OC)c1 ?
A. 19.4%
